Data credit: PubChem BioAssay (NCI)

Tested on: CCRF-CEM leukemia
Experiment Summary: NCI-60 one-dose screen, 48 h (100 = growth as untreated, 0 = no growth, -100 = all killed)
Test Settings: 10 µM unless noted
Compounds without any hit were thinned out: in the full panel of roughly 83,000, 20% have a hit. The source made the active and inactive calls. How the source made its calls: active means growth percent below 10; inactive means the rest.

- Compound: "Nc1ncnc2c1ccn2-c1cccc(NC(=O)c2cccc(C(F)(F)F)c2)c1"
  Tested On: "CCRF-CEM leukemia"
  growth: "51.3% (inactive)"
- Compound: "CCCCC(=O)Nc1nc2ccc(SCCC)cc2s1"
  Tested On: "CCRF-CEM leukemia"
  growth: "44% (inactive)"
- Compound: "O=C(Nc1ccc(-n2ccc3c(NC(=O)c4ccccc4)ncnc32)cc1)Nc1ccc(Cl)c(C(F)(F)F)c1"
  Tested On: "CCRF-CEM leukemia"
  growth: "-14.5% (active)"
- Compound: "O=C(Nc1ccc(-n2ccc3c(NC(=O)c4ccccc4)ncnc32)cc1)Nc1cccc(Cl)c1Cl"
  Tested On: "CCRF-CEM leukemia"
  growth: "16.5% (inactive)"
- Compound: "COc1ccc(Cl)cc1NC(=O)c1cc2c([nH]1)-c1nc(NC(=O)C(C)C)sc1CC2"
  Tested On: "CCRF-CEM leukemia"
  growth: "93.4% (inactive)"
- Compound: "CCCCOc1nc2ccc(Cl)cc2cc1/C=C/C(=O)/C=C/c1ccc(Cl)cc1"
  Tested On: "CCRF-CEM leukemia"
  growth: "76.2% (inactive)"
- Compound: "COc1ccc(-c2nn(-c3cccc(Cl)c3)cc2-c2cc(-c3ccc(Br)cc3)[nH]c(=O)c2C#N)cc1"
  Tested On: "CCRF-CEM leukemia"
  growth: "75.4% (inactive)"
- Compound: "CCc1ccc(C2=C/C(=C/c3ccc(Cl)cc3)C(=O)N2CCc2ccc(S(N)(=O)=O)cc2)cc1"
  Tested On: "CCRF-CEM leukemia"
  growth: "15% (inactive)"
- Compound: "CCC1S/C(=N\\N=C(/C)c2ccco2)N(c2ccccc2)C1=O (centres undefined)"
  Tested On: "CCRF-CEM leukemia"
  growth: "-58.4% (active)"

----------
A collection of compounds and their measured growth
System: UO-31 renal
Experiment Summary: NCI-60 one-dose screen, 48 h (100 = growth as untreated, 0 = no growth, -100 = all killed)
Test Settings: 10 µM unless noted
About 83,000 compounds went through this panel and 20% of them were active in at least one assay; those are over-represented in the sample as a whole. Activity calls are given as the source filed them. How the source made its calls: active means growth percent below 10; inactive means the rest.

- Compound Structure String: "C=C1C(=O)O[C@H]2[C@H]1CC/C(COC(=O)c1ccc(Cl)nc1)=C\\CC[C@@]1(C)O[C@@H]21"
  growth: "-39% (active)"
- Compound Structure String: "O=C(CSc1nnc(-c2cc3c([nH]c4ccccc43)c(-c3cccc(O)c3)n2)n1-c1ccccc1)c1ccccc1"
  growth: "63.4% (inactive)"
- Compound Structure String: "CCCCNc1cc(C(=O)O)cc(S(N)(=O)=O)c1Oc1ccccc1"
  growth: "85.4% (inactive)"
- Compound Structure String: "Nc1nc(Cl)cc(NCCCCNc2cc(Cl)nc(N)n2)n1"
  growth: "96.5% (inactive)"
- Compound Structure String: "Nc1n[nH]c2cccc(C#Cc3cccc(NC(=O)c4cccc(C(F)(F)F)c4)c3)c12"
  growth: "3.58% (active)"
- Compound Structure String: "COC(=O)c1ccc(NC(N)=NCC(C)(C)COc2ccc(C(F)(F)F)cc2)nc1"
  growth: "41.1% (inactive)"
- Compound Structure String: "CN(C)c1ccc(/C=N/n2c(-c3cc(F)c(Cl)cc3Cl)nn(CN3CCOCC3)c2=S)cc1"
  growth: "69.1% (inactive)"
- Compound Structure String: "COc1cc(-c2nc3ccccc3s2)ccc1OCc1nc2n(n1)S(=O)(=O)c1ccccc1N2C"
  growth: "72.8% (inactive)"
- Compound Structure String: "O=S1(=O)N(CCNc2nccc(-c3c(-c4cccc(O)c4)nc4sccn34)n2)CCN1Cc1ccccc1"
  growth: "43.8% (inactive)"
